- target-system: Concanavalin-A (Canavalia ensiformis) (UniProt P02866)
- Sequence (P02866 whole entry, looked up): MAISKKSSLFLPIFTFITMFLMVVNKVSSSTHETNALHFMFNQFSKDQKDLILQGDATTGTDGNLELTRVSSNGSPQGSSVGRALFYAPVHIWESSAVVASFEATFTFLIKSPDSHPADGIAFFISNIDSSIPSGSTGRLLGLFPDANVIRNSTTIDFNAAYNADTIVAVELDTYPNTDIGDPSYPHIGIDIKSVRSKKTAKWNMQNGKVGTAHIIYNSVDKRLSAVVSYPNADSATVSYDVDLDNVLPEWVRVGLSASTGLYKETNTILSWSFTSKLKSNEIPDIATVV
- protocol-text: ConA small-molecule binders, primary screen, artefact control for SMM control protein annotation, biochemical, small-molecule microarray, Alexa647 label, 635 nm (AID 1127);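 note: z combines 667 nm emission intensity with signal-to-noise across three replicate slides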
- condition-summary: ConA-A647 binding fluorescence, higher = more signal
I'd appreciate it if you could supply composite z-score values for the items below.
Answers are plain numbers.

Study these solved cases before continuing.
compound | composite z-score
COc1ccc(CCNC(=O)[C@@]2(Cc3ccccc3I)c3ccccc3C(=O)N(Cc3ccccc3Cl)[C@H]2c2ccc(CO)cc2)cc1 | 0.555
COCCOC(=O)N1C(=O)[C@@]2(c3cc(C#CCCO)ccc31)[C@H](C(N)=O)[C@H]1C(=O)O[C@H](c3ccccc3)[C@H](c3ccccc3)N1[C@@H]2c1ccc(OCCO)cc1 | 1.15
COC(=O)[C@@]1(Cc2ccc(OC)cc2)[C@H]2c3cc(C(=O)N4CCCC4)n(Cc4ccc(S(C)(=O)=O)cc4)c3C[C@H]2CN1C(=O)c1ccccc1 | 0.417
COCCOC(=O)N1C(=O)[C@@]2(c3cc(C#CC4(O)CCCCCC4)ccc31)[C@H](C(=O)N1CCN(c3ncccn3)CC1)[C@H]1C(=O)O[C@H](c3ccccc3)[C@H](c3ccccc3)N1[C@@H]2c1ccccc1OCCO | 1.13
CN1C=C(C(=O)OCCS(C)(=O)=O)C(C(=O)OCCS(C)(=O)=O)=CC(c2ccc(CO)cc2)=CC1c1cccs1 (configuration not stated) | 0.64

Below is a list of compounds. For each, state its recorded composite z-score.
1. COC(=O)C(CC#Cc1ccc2c(c1)[C@]1(C(=O)N2)[C@H](c2ccc(OCCO)cc2)N2[C@H](c3ccccc3)[C@H](c3ccccc3)OC(=O)[C@H]2[C@@H]1C(=O)N1CCN(c2ncccn2)CC1)C(=O)OC
2. C=C(C)C1CCC(C(O)C2C=CC3C(=O)N(C)C(=O)C3N2Nc2cc(OC)c(OC)c(OC)c2)CC1 (configuration not stated)
3. CC(C)[C@H]1NC(=O)[C@@]23C(=O)N[C@@H](Cc4ccccc4)C2[C@H](C)[C@@]2(C)O[C@H]2C3/C=C/C/C=C\CNC(=O)[C@H](Cc2ccccc2)NC1=O (some centres not stated)
4. COCC(=C=CC[C@H](O)c1cccc(OCCO)c1)C[C@H](O)COCc1ccccc1
5. [N-]=[N+]=Nc1ccccc1C[C@@]1(C(=O)O)N=C(c2ccc(OCCCO)cc2)O[C@@H]1c1ccccc1N=[N+]=[N-]
6. C=C/C=C/[C@@H]1C(=C)CN([C@@H](Cc2ccccc2)C(=O)OC)[C@H]1[C@@H](O)Cc1ccccc1

[1.16, 0.974, 0.273, -0.564, 1.15, 0.861]

Below is a list of compounds. For each, state its recorded composite z-score.
1. O=C1c2ccccc2[C@](Cc2ccccc2I)(C(=O)NC2CC2)[C@H](c2ccc(CO)cc2)N1Cc1ccccc1C(F)(F)F
2. CCCCC(=O)N(CCN1CCOCC1)[C@@H]1CC(C(=O)NCCO)=C[C@H](Oc2c(I)cc(CO)cc2OC)[C@H]1O
3. COC(=O)C1N=C(c2ccc(OCCCO)cc2)N(c2ccccc2)O1 (configuration not stated)
4. COc1ccc([Si](C)(C)[C@@H]2[C@@H](CC(=O)N3Cc4ccccc4C[C@H]3CO)O[C@]3(C(=O)N(Cc4ccc(N5CCC5=O)cc4)c4ccccc43)[C@H]2C)cc1
5. O=C1O[C@H](c2ccccc2)[C@H](c2ccccc2)N2[C@H]1[C@@H](C(=O)N1CCCCCCC1)[C@]1(C(=O)Nc3ccc(C#CC4(O)CCCCCC4)cc31)[C@H]2c1ccccc1OCCO
6. COc1cc2c(cc1O)C(c1ccc(CN3CCCC3)cc1)N(C)CC2 (configuration not stated)

1: 0.847; 2: 0.331; 3: 1.11; 4: 1.08; 5: 0.952; 6: 0.113

Below is a list of compounds. For each, state its recorded composite z-score.
1. C=CCC(OC(C)=O)[C@@H]1[C@@H](N(Cc2ccc(-c3cccc(C(F)(F)F)c3)o2)C(=O)Cc2ccc(OC)cc2)c2cc(OCCCO)ccc2N1C(=O)Cc1ccc2ccccc2c1 (some centres not stated)
2. CCC(CC)C(O)C1C=CC2C(=O)N(c3ccccc3)C(=O)C2N1Nc1ccc([N+](=O)[O-])cc1 (configuration not stated)
3. O=C(NCC(O)CO)[C@@]1(CCS(=O)(=O)c2ccccc2)COC(c2ccc(OCCCO)cc2)=N1 (some centres not stated)
4. C=CCNC(=O)[C@@H]1[C@H]2C(=O)O[C@H](c3ccccc3)[C@H](c3ccccc3)N2[C@H](c2ccc(O)cc2)[C@@]12C(=O)Nc1ccc(C#CCC(C(=O)OC)C(=O)OC)cc12
5. CC(C)CNC(=O)[C@@]1(c2ccc([N+](=O)[O-])cc2)CC(=O)N(C2CCCCC2)[C@@H]1c1ccc(CO)cc1
6. COc1cc(NN2C(C(O)c3cc(OC)c(OC)c(OC)c3)C=CC3C(=O)N(c4ccccc4)C(=O)C32)cc(OC)c1OC (configuration not stated)

[-0.0477, 1.05, 0.572, 0.933, 0.213, 1.2]

Below is a list of compounds. For each, state its recorded composite z-score.
1. C[C@]1(C(=O)O)c2ccccc2C(=O)N(Cc2ccc(OC(F)(F)F)cc2)[C@H]1c1ccc(CO)cc1
2. O=C1C2C=CC(C(O)c3ccco3)N(Nc3ccccc3)C2C(=O)N1c1ccccc1 (configuration not stated)
3. COCCOC(=O)N1C(=O)[C@@]2(c3cc(C#CCC(C(=O)OC)C(=O)OC)ccc31)[C@H](C(=O)NC[C@H](O)c1ccccc1)[C@H]1C(=O)O[C@H](c3ccccc3)[C@H](c3ccccc3)N1[C@@H]2c1ccc(OCCO)cc1
4. COC(=O)[C@@]1(Cc2ccccc2CN=[N+]=[N-])N=C(c2ccc(OCCCO)cc2)O[C@H]1c1ccccc1

[-0.783, -0.222, 1.14, 0.686]
